target: MAL^TIR (Homo sapiens, UniProt P58753); construct: MAL (residues 79–221); 6xHis; made in house; host or cells: E. coli BL21 (DE3); assay: T‐Surf phage library (P8 and P3) selection against MAL^TIR, four rounds, NGS read counts; format: binding; settings: P3_MAL: rank by count before grouping
Sequence (P58753 79-221): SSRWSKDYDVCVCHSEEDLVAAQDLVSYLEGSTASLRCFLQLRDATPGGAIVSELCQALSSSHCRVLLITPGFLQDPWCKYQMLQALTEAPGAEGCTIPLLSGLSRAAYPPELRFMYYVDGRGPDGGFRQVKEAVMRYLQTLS
measured-property: Rank (before)

Check out these entries, answers already filled in.
| chain | Rank (before) |
| --- | --- |
| DWFREQLRPALKERLP | 787 |
| KEVEGWRDALSSIASRP | 685 |
| RSFRDGLWRLLELSKK | 3232 |

(A) PNLSPKVLNYLMRTKT
(B) YAFTGHLHRYLMRTKT
Recorded Rank (before) values differ for A and B ; which one is higher? Provide the label of your selected option as the answer. A

(P) NQWRNALTAAAHLSGL
(Q) YAFTGHLHRYLVQRGEP
(R) YNFISHLYDALHQFHSWV
(S) LQNQWRNALTAAANLSGW
Order the records so the highest Rank (before) appears first and the lowest last. Answer with the labels in sequence, matching the requested order. P, S, Q, R
(P: 3362, S: 2140, Q: 1397, R: 523)

(I) VRHTFAGYLCVALNRL
(II) RNLAGLVYDCLTKTGA
Compare Rank (before): is it lower for I or for II ? Provide the label of your selected option as the answer. I

(A) YAFTGHLRRYLLRRSV
(B) KEVEGWRDALRKIANIF
Compare Rank (before): is it lower for A or for B ? Provide the label of your selected option as the answer. A

* * *

molecular target: MyD88^TIR (Homo sapiens, UniProt Q99836); construct: MyD88 (residues 148–296); 6xHis; made in house; host or cells: E. coli BL21 (DE3); experiment: T‐Surf phage library (P8 and P3) selection against MyD88^TIR, four rounds, NGS read counts; type: binding; conditions: P3 library, selection against MyD88, rank by count after grouping
Sequence (Q99836 148-296): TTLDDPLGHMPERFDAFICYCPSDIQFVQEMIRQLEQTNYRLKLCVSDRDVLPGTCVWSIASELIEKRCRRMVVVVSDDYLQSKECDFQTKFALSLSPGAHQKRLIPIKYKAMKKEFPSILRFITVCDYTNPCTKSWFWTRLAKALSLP
measured-property: P3_MyD88 Rank (after)

| chain | P3_MyD88 Rank (after) |
| --- | --- |
| GEDTRYTYRPSACDP | 730 |
| NQWRNALIAAVNLSGC | 700 |
| YTALNNMGFHTFRGND | 705 |
| NGQSSRFKDDADLVGQ | 678 |
| YTLLAICMMRCIVIV | 682 |
| DHHLDLLRGIAIKLEILG | 722 |

* * *

target: MyD88^TIR (Homo sapiens); construct: MyD88 (residues 148–296); 6xHis; made in house; host or cells: E. coli BL21 (DE3); experiment: T‐Surf phage library (P8 and P3) selection against MyD88^TIR, four rounds, NGS read counts; format: binding; conditions: P3_MyD88: rank by count before grouping
measured-property: Rank (before)

| chain | measurement-target | recorded-value |
| --- | --- | --- |
| NGHESEIIKEIWIPL | MyD88^TIR (Homo sapiens) | 3358 |

(a) PVAHDLSKKMKIFATI
(b) WFWDKLKYALHRNRI
Recorded Rank (before) values differ for a and b ; which one is higher? Provide the label of your selected option as the answer. a
(a: 2698, b: 1414)

* * *

Target: MyD88^TIR (Homo sapiens, UniProt Q99836)
Construct: MyD88 (residues 148–296); 6xHis; made in house; host or cells: E. coli BL21 (DE3)
Assay: T‐Surf phage library (P8 and P3) selection against MyD88^TIR, four rounds, NGS read counts
Assay type: binding
Details: P8 library, 4R selection against MyD88, rank before grouping
Description: T‐Surf libraries were screened against the immobilized TIR domains of two major human TLR adaptor proteins, MAL^TIR and MyD88^TIR, allowing cross‐species selection of TIR‐binding motifs with 190 946 TIR‐derived peptides in a single binding assay (Scheme 1). Enriched phage pools from the fourth round of selection were analyzed using NGS after barcoding the peptide‐coding regions of the phage pools. […]
measured-property: P8_MyD88 Rank (before)

Check out these entries, answers already filled in.
| chain | measured-property | recorded-value |
| --- | --- | --- |
| DPQDPDRNYERMVSRL | P8_MyD88 Rank (before) | 2961 |
| IDDDHLTYLVRLLLS | P8_MyD88 Rank (before) | 3635 |
| WAQDALLKILYAKETM | P8_MyD88 Rank (before) | 1562 |
| DPQLLVCFYERLVSLF | P8_MyD88 Rank (before) | 3023 |
| DPQDQDRFYERLVSLF | P8_MyD88 Rank (before) | 2968 |
| DPQVLVWLYERPFRQI | P8_MyD88 Rank (before) | 2644 |
| WALDLEWFYERLFSQM | P8_MyD88 Rank (before) | 1517 |
| DSQDLDWLYERLVSLL | P8_MyD88 Rank (before) | 2497 |

(P) MFGGDTFMIFWILLA
(Q) WFYERLVSLILRDTKV
Recorded P8_MyD88 Rank (before) values differ for P and Q ; which one is higher? Provide the label of your selected option as the answer. P

(I) QDLGWFYERLVSLF
(II) DWVWDELLKILYANETM
Recorded P8_MyD88 Rank (before) values differ for I and II ; which one is higher? Provide the label of your selected option as the answer. I

* * *

target: MAL^TIR (Homo sapiens, UniProt P58753); construct: MAL (residues 79–221); 6xHis; made in house; host or cells: E. coli BL21 (DE3); assay: T‐Surf phage library (P8 and P3) selection against MAL^TIR, four rounds, NGS read counts; format: binding; details: P3 library, selection against MAL TIR; rank by count before grouping
measured-property: P3_MAL Rank (before)

Check out these entries, answers already filled in.
| chain | measurement-target | P3_MAL Rank (before) |
| --- | --- | --- |
| YNFISHLYAALQRKHVET | MAL^TIR (Homo sapiens, UniProt P58753) | 754 |
| SICREGLWRLLELSKK | MAL^TIR (Homo sapiens, UniProt P58753) | 3117 |
| NQWRNELNAAANLSGW | MAL^TIR (Homo sapiens, UniProt P58753) | 3406 |

(1) LKWGDPYFWIKLRYTM
(2) NAFTGNLHRYLVQRGV
(3) YTALTNIGFHTFLDND
Which order do these items take when sorted by rising P3_MAL Rank (before)? List them. Answer with the labels in sequence, matching the requested order. 3, 1, 2
(3: 1542, 1: 2212, 2: 3276)

* * *

Molecular target: MyD88^TIR (Homo sapiens, UniProt Q99836)
Construct: MyD88 (residues 148–296); 6xHis; made in house; host or cells: E. coli BL21 (DE3)
Experiment: T‐Surf phage library (P8 and P3) selection against MyD88^TIR, four rounds, NGS read counts
Assay type: binding
Conditions: P3_MyD88: rank by count before grouping
Procedure: T‐Surf libraries were screened against the immobilized TIR domains of two major human TLR adaptor proteins, MAL^TIR and MyD88^TIR, allowing cross‐species selection of TIR‐binding motifs with 190 946 TIR‐derived peptides in a single binding assay (Scheme 1). Enriched phage pools from the fourth round of selection were analyzed using NGS after barcoding the peptide‐coding regions of the phage pools. […]
measured-property: Rank (before)

Check out these entries, answers already filled in.
| chain | measurement-target | Rank (before) |
| --- | --- | --- |
| NDLVHGWSSKANSLVG | MyD88^TIR (Homo sapiens, UniProt Q99836) | 3388 |
| GSFRESLWRLLELSKK | MyD88^TIR (Homo sapiens, UniProt Q99836) | 1859 |

(A) NQCRNFLTAAANLSGW
(B) LQNQWKLALTKVASL
(C) LQNQWKLALNKVANLP
(D) SSFRDGLWRLLELSKT
(E) RLLKWKEALHQFHSW
Which order do these items take when sorted by rising Rank (before)? List them. Answer with the labels in sequence, matching the requested order. B, E, D, C, A
(B: 374, E: 708, D: 1198, C: 2361, A: 3465)

(1) SSFREGLLRLLELNKK
(2) EWMREQLRPPLKERLP
Compare Rank (before): is it lower for 1 or for 2 ? Provide the label of your selected option as the answer. 2

(I) SSICEGLWRLLELSKK
(II) DHHLDLPRGKSFKPEILG
Recorded Rank (before) values differ for I and II ; which one is higher? Provide the label of your selected option as the answer. I

* * *

target: MyD88^TIR (Homo sapiens, UniProt Q99836); construct: MyD88 (residues 148–296); 6xHis; made in house; host or cells: E. coli BL21 (DE3); test: T‐Surf phage library (P8 and P3) selection against MyD88^TIR, four rounds, NGS read counts; type: binding; settings: P3 library, selection against MyD88, rank by count before grouping
measured-property: P3_MyD88 Rank (before)

Check out these entries, answers already filled in.
| chain | P3_MyD88 Rank (before) |
| --- | --- |
| NGQSSRFKDDADLVGQ | 3337 |
| SENYASSSWALTELVH | 2958 |
| PEKDNGGENAFINTL | 2715 |
| KWLWEKRTCGHSRNTA | 3585 |
| KNLIMEQLSKELHTVM | 3792 |
| LKWGDPYLCSKLRYAM | 2442 |
| YAFTCHLHRYLVQRCV | 1481 |
| HQLSVDIQGYALKAGV | 2807 |

(1) EWGDPYFWSKLRYAM
(2) YYLDPSHLRKQSGESERL
(3) NHHLDPPRGKANKPGILG
Which order do these items take when sorted by rising P3_MyD88 Rank (before)? List them. Answer with the labels in sequence, matching the requested order. 2, 1, 3
(2: 1459, 1: 2125, 3: 3461)
